// read-out Ki, gathered for UniProt:P31424 from published studies

O=C(c1ccc(Cl)c(C#Cc2ccccn2)c1)N1CCc2[nH]cnc2C1 : 16 nM
O=S(=O)(c1ccc(F)cc1)c1cnc2cc(Cl)ccc2c1N1CCC(CO)CC1 : 200 to 500 nM

Record `N#Cc1cccc(S(=O)(=O)c2cnc3c(F)cccc3c2-c2ccc(Cl)cc2)c1` . Reported Ki: < 200 nM

Record `O=S(=O)(c1cc(F)cc(F)c1)c1cnc2cc(F)ccc2c1N1CCOCC1` . Reported Ki: > 500 nM

Record `COc1ccc(S(=O)(=O)c2cnc3ccc(F)cc3c2-c2ccc(F)cc2)cc1Cl` . Reported Ki: > 500 nM

Record `N#Cc1ccc(-c2c(S(=O)(=O)c3cccc(C#N)c3)sc3ncccc23)cc1` . Reported Ki: < 500 nM

Record `O=S(=O)(c1ccc(F)c(F)c1)c1cnc2cc(F)ccc2c1-c1ccc(Cl)cc1` . Reported Ki: < 200 nM

---

pKi: −log10 of the molar value.
// read-out pKi, gathered for Metabotropic glutamate receptor 5 (Rattus norvegicus) from published studies

O=S(=O)(c1ccc(Cl)cc1)c1sc2ncc(Cl)cc2c1-c1ccc(Cl)cc1 : > 6.30
Cc1ccc(C(=O)N2CCc3nc[nH]c3C2)cc1C#Cc1ccccn1 : 7.85
O=S(=O)(c1cc(F)cc(F)c1)c1cnc2ccc(Cl)cc2c1N1CCOCC1 : < 6.30

Let me check: `Nc1cnc2sc(S(=O)(=O)c3ccc(Cl)cc3)c(-c3ccccc3F)c2c1` , system Metabotropic glutamate receptor 5 (Rattus norvegicus), measured pKi is > 6.30

---

// read-out pKi, gathered for Metabotropic glutamate receptor 5 (Rattus norvegicus) from published studies
pKi: −log10 of the molar value.

Some solved cases for reference:
COc1ccc(S(=O)(=O)c2cnc3ccc(Cl)cc3c2N2CCC(C)CC2)cc1OC : 6.30 to 6.70
Cc1ccc(S(=O)(=O)c2cnc3c(F)cccc3c2N2CCC(C)CC2)cc1 : > 6.70
COc1ccc(S(=O)(=O)c2cnc3cc(Cl)ccc3c2N2CCC(C)CC2)cc1 : 6.30 to 6.70
CC1CCN(c2c(S(=O)(=O)c3cccc(C#N)c3)cnc3cc(Cl)ccc23)CC1 : > 6.70
N#Cc1cccc(S(=O)(=O)c2cnc3ccccc3c2-c2cccc(Cl)c2)c1 : > 6.70
COc1ccc(S(=O)(=O)c2cnc3ccc(C)cc3c2N2CCOCC2)cc1 : < 6.30
CCc1ccc2ncc(S(=O)(=O)c3ccc(Cl)cc3)c(NCc3ccc(C)cc3)c2c1 : < 6.30
Cc1ccc(S(=O)(=O)c2cnc3c(F)cccc3c2N2CCOCC2)cc1 : < 6.30

Let me check: `COc1ccc(S(=O)(=O)c2cnc3ccc(F)cc3c2-c2cccc(F)c2)cc1` , system Metabotropic glutamate receptor 5 (Rattus norvegicus), measured pKi is 6.30 to 6.70

Let me check: `O=S(=O)(c1ccc(Cl)cc1)c1cnc2ccc(F)cc2c1-c1cccc(Cl)c1` , system Metabotropic glutamate receptor 5 (Rattus norvegicus), measured pKi is < 6.30

Let me check: `O=S(=O)(c1ccc(F)cc1)c1sc2ncccc2c1-c1ccc(Cl)cc1` , system Metabotropic glutamate receptor 5 (Rattus norvegicus), measured pKi is > 6.30

Let me check: `O=S(=O)(c1cccc(F)c1)c1cnc2ccc(F)cc2c1-c1ccc(Cl)cc1` , system Metabotropic glutamate receptor 5 (Rattus norvegicus), measured pKi is < 6.30

Let me check: `COc1ccc(-c2c(S(=O)(=O)c3cccc(F)c3)cnc3c(F)cccc23)cc1` , system Metabotropic glutamate receptor 5 (Rattus norvegicus), measured pKi is > 6.70

Let me check: `Cc1ccc(S(=O)(=O)c2cnc3ccc(F)cc3c2-c2cccc(F)c2)cc1Cl` , system Metabotropic glutamate receptor 5 (Rattus norvegicus), measured pKi is > 6.70

Let me check: `N#Cc1cc(S(=O)(=O)c2cnc3ccccc3c2-c2ccc(Cl)c(Cl)c2)ccc1F` , system Metabotropic glutamate receptor 5 (Rattus norvegicus), measured pKi is > 6.70

Let me check: `O=C(Nc1nccs1)c1sc2ncccc2c1-c1ccc(Cl)cc1` , system Metabotropic glutamate receptor 5 (Rattus norvegicus), measured pKi is < 5.82

Let me check: `N#Cc1cccc(S(=O)(=O)c2sc3nc(F)ccc3c2-c2ccc(F)cc2)c1` , system Metabotropic glutamate receptor 5 (Rattus norvegicus), measured pKi is > 6.30

---

// read-out pKi, gathered for Metabotropic glutamate receptor 5 (Rattus norvegicus, UniProt P31424) from published studies
pKi: −log10 of the molar value.

O=S(=O)(c1ccc(F)cc1)c1cnc2cc(Cl)ccc2c1-c1ccc(F)cc1 : > 6.70
O=S(=O)(c1ccc(Cl)cc1)c1sc2ncc(F)cc2c1-c1ccc(Cl)cc1 : > 6.30

Let me check: `O=S(=O)(c1ccccc1)c1cnc2cc3c(cc2c1N1CCCCC1)OCCO3` , system Metabotropic glutamate receptor 5 (Rattus norvegicus, UniProt P31424), measured pKi is < 6.30

Let me check: `O=S(=O)(Nc1ccc(Cl)cc1)c1sc2ncccc2c1-c1ccc(Cl)cc1` , system Metabotropic glutamate receptor 5 (Rattus norvegicus, UniProt P31424), measured pKi is 5.82 to 6.30

Let me check: `O=S(=O)(c1ccc(F)c(Cl)c1)c1cnc2cc(Cl)ccc2c1-c1cc(F)cc(F)c1` , system Metabotropic glutamate receptor 5 (Rattus norvegicus, UniProt P31424), measured pKi is > 6.70

Let me check: `CCc1ccc2ncc(S(=O)(=O)c3ccc(OC)cc3)c(N3CCC(C)CC3)c2c1` , system Metabotropic glutamate receptor 5 (Rattus norvegicus, UniProt P31424), measured pKi is > 6.70

Let me check: `O=S(=O)(c1cc(F)cc(F)c1)c1cnc2c(F)cccc2c1-c1cccc(Cl)c1` , system Metabotropic glutamate receptor 5 (Rattus norvegicus, UniProt P31424), measured pKi is > 6.70

---

// read-out pKi, gathered for UniProtKB P31424 from published studies
pKi: −log10 of the molar value.

Some solved cases for reference:
O=S(=O)(c1ccc(Cl)cc1)c1cnc2c(Cl)cccc2c1-c1ccc(Cl)c(Cl)c1 : < 6.30
COc1ccc2ncc(S(=O)(=O)c3ccc(Cl)c(Cl)c3)c(N3CCC(C)CC3)c2c1 : > 6.70
O=S(=O)(c1ccc(F)cc1)c1cnc2cc(Cl)ccc2c1-c1ccc(Cl)cc1 : > 6.70
COc1ccc(C(=O)N2CCc3c(F)cccc3C2)cc1C#Cc1ccccn1 : 8.70
CCc1ccc2ncc(S(=O)(=O)c3ccc(C)cc3)c(NCc3ccccc3)c2c1 : < 6.30

Record `N#Cc1cccc(S(=O)(=O)c2cnc3cc(C#N)ccc3c2-c2ccc(F)cc2)c1` . Reported pKi: 6.30 to 6.70

Record `COc1ccc(S(=O)(=O)c2cnc3cc(F)ccc3c2-c2cccc(F)c2)cc1` . Reported pKi: 6.30 to 6.70

Record `O=S(=O)(c1ccc(Cl)c(Cl)c1)c1cnc2ccc(F)cc2c1N1CCOCC1` . Reported pKi: 6.30 to 6.70

---

// read-out Ki, gathered for UniProt:P31424 from published studies

Some solved cases for reference:
COc1cccc(-c2c(S(=O)(=O)c3cc(Cl)cc(Cl)c3)cnc3ccc(F)cc23)c1 : < 200 nM
O=S(=O)(c1ccc(Cl)c(Cl)c1)c1cnc2cc(Cl)ccc2c1N1CCOCC1 : < 200 nM

Record `CN1CCN(C(=O)Nc2c(S(=O)(=O)c3ccc(Cl)cc3)sc3ncccc23)CC1` . Reported Ki: > 1500 nM

---

// read-out Ki, gathered for Metabotropic glutamate receptor 5 (Rattus norvegicus, UniProt P31424) from published studies

Some solved cases for reference:
COc1ccc(-c2c(S(=O)(=O)c3ccc(OC)cc3)cnc3cc(F)ccc23)cc1 : < 200 nM
O=S(=O)(c1cc(F)cc(F)c1)c1cnc2cc(Cl)c(F)cc2c1-c1ccc(Cl)cc1 : > 500 nM
O=S(=O)(c1ccc(Cl)cc1)c1sc2ncccc2c1-c1ccccc1F : < 500 nM

Let me check: `COc1ccc(C(=O)N2CCc3ncc(C)cc3C2)cc1C#Cc1ccccn1` , system Metabotropic glutamate receptor 5 (Rattus norvegicus, UniProt P31424), measured Ki is 22 nM

---

pKi: −log10 of the molar value.
// read-out pKi, gathered for Metabotropic glutamate receptor 5 (Rattus norvegicus, UniProt P31424) from published studies

CC1CCN(c2c(S(=O)(=O)c3cc(F)cc(F)c3)cnc3cc(F)ccc23)CC1 : 6.30 to 6.70
Nc1ccnc2sc(S(=O)(=O)c3ccc(Cl)cc3)c(-c3ccc(Cl)cc3)c12 : > 6.30

Let me check: `O=S(=O)(c1ccc(F)c(F)c1)c1cnc2c(F)cccc2c1-c1ccccc1F` , system Metabotropic glutamate receptor 5 (Rattus norvegicus, UniProt P31424), measured pKi is > 6.70

Let me check: `Cc1ccc(C(=O)N2CCc3ccccc3C2)cc1C#Cc1ccccn1` , system Metabotropic glutamate receptor 5 (Rattus norvegicus, UniProt P31424), measured pKi is 9.00

Let me check: `O=S(=O)(c1ccc(F)c(F)c1)c1cnc2c(F)c(Cl)ccc2c1-c1ccc(Cl)cc1` , system Metabotropic glutamate receptor 5 (Rattus norvegicus, UniProt P31424), measured pKi is > 6.70

Let me check: `O=S(=O)(c1ccc(Cl)cc1)c1cnc2ccc(F)cc2c1N1CCC(F)(F)CC1` , system Metabotropic glutamate receptor 5 (Rattus norvegicus, UniProt P31424), measured pKi is 6.30 to 6.70

Let me check: `CCc1ccc2ncc(S(=O)(=O)c3ccc(C)cc3)c(N3CCCCC3)c2c1` , system Metabotropic glutamate receptor 5 (Rattus norvegicus, UniProt P31424), measured pKi is < 6.30
